Hey, just so you know, these numbers are from the Immune Epitope Database (IEDB).

molecular target: HLA-A*29:02; test: IEDB peptide-MHC binding, purified MHC/competitive/fluorescence; filed as Kd, often an IC50 or EC50 that approximates it; bounds were set here for any values at or beyond the usual limits of such assays; conditions: source organism: Vibrio antiquarius
pKd: −log10 of the molar value.
Measured parameter: pKd

[[record]]
sequence_input = "VTGCASLYV"
assayed_target = "HLA-A*29:02"
observed_value = "≤ 4.70"


###

molecular target: HLA-A*01:01; assay: IEDB peptide-MHC binding, purified MHC/competitive/radioactivity; filed as Kd, often an IC50 or EC50 that approximates it; bounds were set here for any values at or beyond the usual limits of such assays; settings: source organism: SARS coronavirus Tor2
pKd: −log10 of the molar value.
Measured parameter: pKd

[[record]]
sequence_input = "CYGVSATKL"
comparison_symbol = "≤"
observed_value = 4.11

[[record]]
sequence_input = "ISMMGFKMNY"
comparison_symbol = "="
observed_value = 6.37

[[record]]
sequence_input = "GYLKPTTFM"
comparison_symbol = "≤"
observed_value = 4.11

[[record]]
sequence_input = "VWTLMNVITL"
comparison_symbol = "="
observed_value = 5.57

[[record]]
sequence_input = "AFLIGANYL"
comparison_symbol = "≤"
observed_value = 4.14

[[record]]
sequence_input = "YQCGHYTHI"
comparison_symbol = "≤"
observed_value = 4.70

[[record]]
sequence_input = "NGDVVAIDY"
comparison_symbol = "="
observed_value = 5.99

[[record]]
sequence_input = "AWPLIVTAL"
comparison_symbol = "≤"
observed_value = 4.64

[[record]]
sequence_input = "LIDLQELGKY"
comparison_symbol = "="
observed_value = 6.94

[[record]]
sequence_input = "SSQGSEYDY"
comparison_symbol = "="
observed_value = 6.24

[[record]]
sequence_input = "CTLSEQLDY"
comparison_symbol = "="
observed_value = 8.07

[[record]]
sequence_input = "NFKHLREFVF"
comparison_symbol = "≤"
observed_value = 4.15

[[record]]
sequence_input = "AFEKMVSLL"
comparison_symbol = "≤"
observed_value = 4.11

[[record]]
sequence_input = "QFLYLYALI"
comparison_symbol = "="
observed_value = 5.63

